- Assay Remarks: Cytotoxicity against human SF539 cells assessed as growth level at 10 uM after 48 hrs by SRB assay
- Type: functional, SF-539
Label MET when Activity is at or above 80%; otherwise label NOT MET.

These solved cases illustrate the format of a correct answer.
Compound	Answer Label
C=C1CC[C@@H]2[C@](C)(COC(C)=O)[C@H](OC(C)=O)CC[C@@]2(C)[C@@H]1CC(NCCCC)C1=CCOC1=O (mixture of isomers)	MET
C=C1CC[C@@H]2[C@](C)(COC(C)=O)[C@H](OC(C)=O)CC[C@@]2(C)[C@@H]1CC(NCc1ccc(F)cc1)C1=CCOC1=O (mixture of isomers)	NOT MET
C=C1CC[C@@H]2[C@](C)(COC(C)=O)[C@H](OC(C)=O)CC[C@@]2(C)[C@@H]1CC(NCCCCCCCCCCCCCCCCCC)C1=CCOC1=O (mixture of isomers)	MET
C=C1CC[C@@H]2[C@](C)(COC(C)=O)[C@H](OC(C)=O)CC[C@@]2(C)[C@@H]1C/C=C1/C(=O)OC[C@H]1OC(C)=O	NOT MET
C=C1CC[C@@H]2[C@](C)(COC(C)=O)[C@H](OC(C)=O)CC[C@@]2(C)[C@@H]1CC(NCc1cccc(Cl)c1)C1=CCOC1=O (mixture of isomers)	NOT MET
C=C1CC[C@@H]2[C@](C)(COC(C)=O)[C@H](OC(C)=O)CC[C@@]2(C)[C@@H]1CC(NC1CCCC1)C1=CCOC1=O (some centres not stated)	MET
C=C1CC[C@@H]2[C@](C)(COC(C)=O)[C@H](OC(C)=O)CC[C@@]2(C)[C@@H]1CC(NC1CC1)C1=CCOC1=O (mixture of isomers)	MET
C=C1CC[C@@H]2[C@](C)(COC(C)=O)[C@H](OC(C)=O)CC[C@@]2(C)[C@@H]1CC(NCCCCCCCC)C1=CCOC1=O (mixture of isomers)	MET
C=C1CC[C@@H]2[C@](C)(COC(C)=O)[C@H](OC(C)=O)CC[C@@]2(C)[C@@H]1CC(Sc1ccccc1)C1=CCOC1=O (mixture of isomers)	NOT MET
C=C1CC[C@@H]2[C@](C)(CO)[C@H](O)CC[C@@]2(C)[C@@H]1C/C=C1/C(=O)OC[C@H]1O [ANDROGRAPHOLIDE]	MET

Read the next record carefully.
Req: Hi, just wondering whether C=C1CC[C@@H]2[C@](C)(COC(C)=O)[C@H](OC(C)=O)CC[C@@]2(C)[C@@H]1CC(Nc1ccc(S(=O)(=O)NC(C)=O)cc1)C1=CCOC1=O (mixture of isomers) shows Activity of 80% or higher.
Resp: NOT MET
